Cited source for all entries: paper PMC3961306

- EXPERIMENTAL TARGET: panel of more than 300 wild-type and mutant kinases (313 kinase panel) (Homo sapiens, UniProt P36894)
- PROTOCOL TEXT: Kinase profiling in a biochemical assay panel (mobility shift assays and ELISA), %-inhibition at 1 μM; selectivity entropy
- CONDITION DESCRIPTION: kinase BMPR1A; 1 μM compound
Overview of reported %-inhibition, BMPR1A across a group of compounds:
Please give a number only; it is taken to be in %.

// below: answered compounds
COMPOUND: CCCS(=O)(=O)Nc1ccc(F)c(C(=O)c2c[nH]c3ncc(-c4ccc(Cl)cc4)cc23)c1F
%-inhibition, BMPR1A [%]: 9
--
COMPOUND: COc1cc2nccc(Oc3ccc(NC(=O)C4(C(=O)Nc5ccc(F)cc5)CC4)cc3)c2cc1OC [cabozantinib]
%-inhibition, BMPR1A [%]: 2.27
--
COMPOUND: C[C@@H](Oc1cc(-c2cnn(C3CCNCC3)c2)cnc1N)c1c(Cl)ccc(F)c1Cl
%-inhibition, BMPR1A [%]: 41

// sample N#CC[C@H](C1CCCC1)n1cc(-c2ncnc3[nH]ccc23)cn1 , its %-inhibition, BMPR1A was 5.7

// sample Cc1ccc(C(=O)Nc2ccc(CN3CCN(C)CC3)c(C(F)(F)F)c2)cc1C#Cc1cnc2cccnn12 , its %-inhibition, BMPR1A was 6.48

// sample COc1cc2c(Nc3ccc(Br)cc3F)ncnc2cc1OCC1CCN(C)CC1 , its %-inhibition, BMPR1A was 46

// sample CO[C@H]1C[C@@H]2CC[C@@H](C)[C@@](O)(O2)C(=O)C(=O)N2CCCC[C@H]2C(=O)O[C@H]([C@H](C)C[C@@H]2CC[C@@H](OC(=O)C(C)(CO)CO)[C@H](OC)C2)CC(=O)[C@H](C)/C=C(\C)[C@@H](O)[C@@H](OC)C(=O)[C@H](C)C[C@H](C)/C=C/C=C/C=C/1C , its %-inhibition, BMPR1A was -9

// sample Cc1cn(-c2cc(NC(=O)c3ccc(C)c(Nc4nccc(-c5cccnc5)n4)c3)cc(C(F)(F)F)c2)cn1 , its %-inhibition, BMPR1A was -22
